In this section, each of the compounds is paired with its reported melting point.

{"compound": "CC(CO)N1CCN(c2cccc3c2OCCO3)CC1 (stereo not given)", "melting point": "91 to 92 °C"}
{"compound": "NC(=O)N1C(=O)C(=C(OC(=O)C=CC(=O)OCCCCc2ccccc2)c2cccs2)c2cc(F)c(Cl)cc21", "melting point": "159 to 161 °C"}
{"compound": "O=C(CCl)N1CCSC1COc1ccccc1O (stereo not given)", "melting point": "89 to 91 °C"}
{"compound": "CC1C=C(Nc2ccc(OC(F)(F)F)cc2)N(C)N1 (stereo not given)", "melting point": "80 to 82 °C"}
{"compound": "CC1=C(CCO)c2cc(F)ccc2/C1=C\\c1ccc(S(C)(=O)=O)cc1", "melting point": "118 °C"}
{"compound": "COc1nc(N)c(Cl)cc1C(=O)CCC1CCN(CC(C)C)CC1", "melting point": "128 °C"}
{"compound": "CC(C)Cn1c(CN)nc2c(N)nc3ccccc3c21", "melting point": "287 to 291 °C"}
{"compound": "Cn1ncc(/C=C/C(=O)Nc2ccc(Cc3nnco3)cc2)c1-c1ccc(F)cc1", "melting point": "223 to 224 °C"}
{"compound": "COc1ccc(C(=O)c2ccc(C)cc2)cc1C", "melting point": "73 to 75 °C"}
{"compound": "CN1CCN(c2cc(Cl)cc3c2c(=O)n(Cc2cccc(Br)c2)c(=O)n3Cc2ccccc2)CC1", "melting point": "154 to 157 °C"}
{"compound": "CC(C)(C)c1cc(I)c(O)c(C=NO)c1", "melting point": "154 to 156 °C"}
{"compound": "CNC(=O)Oc1c(OC)cc(OC)c2ccccc12", "melting point": "131 to 133 °C"}
{"compound": "N#Cc1c(N2CCCCC2)cc(-c2ccc3ccc4cccc5ccc2c3c45)c2c1-c1ccccc1C2=O", "melting point": "220 to 222 °C"}
{"compound": "CCCc1c(OCCCOc2ccc3c(c2CCC)OC(C)(CCC(N)=O)CC3=O)ccc(C(C)=O)c1O (stereo not given)", "melting point": "77 to 79 °C"}
{"compound": "CCCCc1cn(-c2c(C)cc(C(C)(C)C)cc2C)c(=O)n1Cc1ccc(-c2ccccc2-c2nnn[nH]2)cc1", "melting point": "134 to 135 °C"}
{"compound": "Cn1cnc2nc(C=Cc3ccc(Cl)cc3)nn2c1=S", "melting point": "> 300 °C"}
{"compound": "CCOC(=O)c1cn(-c2ccc([N+](=O)[O-])cc2)cn1", "melting point": "198 to 200 °C"}
{"compound": "NC(=O)c1sc2nccc(N3CCCN(c4ccc(C(F)(F)F)cc4)CC3)c2c1N", "melting point": "204 to 208 °C"}
{"compound": "Cc1c(C)c(S(=O)(=O)C[N+](=O)[O-])c(C)c2c1OC(C)(C)CC2", "melting point": "98 to 100 °C"}
{"compound": "O=C(O)Cc1cn2ccccc2n1", "melting point": "205 to 208 °C"}
{"compound": "CCOC(=O)CN=c1sc2ccccc2s1", "melting point": "88 to 89 °C"}
{"compound": "CCC(=NO)c1ccccc1O", "melting point": "88 to 90 °C"}
{"compound": "CCCCCCCCCCCCCCCCOCC(COCCCCCCCCCCCCCCCC)NCCC#N", "melting point": "45 to 46 °C"}
{"compound": "COC(=O)NC[C@H]1CN(c2ccc(-c3nc(Cn4cccn4)cs3)c(F)c2)C(=O)O1", "melting point": "142 to 144 °C"}
{"compound": "CC(C)c1cc(Cl)cc2c1OC(C(F)(F)F)C(C(=O)O)=C2 (stereo not given)", "melting point": "185 to 189 °C"}
{"compound": "O=C(O)Cc1c(Cl)nc(-c2ccccc2)n1Cc1cc([N+](=O)[O-])ccc1Cl", "melting point": "200 to 205 °C"}
{"compound": "COc1ccc(-c2cccc(-c3nc(C(C)C)[nH]c3-c3cccc(C)n3)c2)cc1", "melting point": "75 to 77 °C"}
{"compound": "N#Cc1cc(-c2ccc(Cl)cc2)c[nH]c1=O", "melting point": "278 to 280 °C"}
{"compound": "Fc1ccc(N2CCN(Cc3ccc(CCl)cc3)CC2)cc1", "melting point": "81 to 83 °C"}
{"compound": "O=C(c1ccc(F)cc1)c1nc[nH]n1", "melting point": "225 to 230 °C"}
